System: 323965-272-R-J2-PDC complex spheroid viability
assay_protocol: Anticancer human tumor 323965-272-R-J2-PDC patient-derived pancreatic carcinoma cell line growth inhibition [CLK]
test_parameters: curve of first compound; second compound 0.316 µM
Hi there, I'd appreciate the recorded IC50 for every entry that follows.

Bench note, 323965-272-R-J2-PDC complex spheroid viability: O=C(c1cc(Cc2n[nH]c(=O)c3ccccc23)ccc1F)N1CCN(C(=O)C2CC2)CC1 + CNC(=O)c1ccc(Nc2nc(OC3CCCC3)c3c(-c4ccc5nc(C)oc5c4)c[nH]c3n2)c(OC)c1 , IC50 reads > 10000 nM

The measured IC50 that C=CC(=O)Nc1cc(Nc2nccc(-c3cn(C)c4ccccc34)n2)c(OC)cc1N(C)CCN(C)C + CN1CCN(c2cc(C(=O)Nc3cc4cc(-c5cnn(C)c5)ccc4cn3)ccn2)CC1 showed for 323965-272-R-J2-PDC complex spheroid viability is < 0.949 nM

The measured IC50 that C=CC(=O)Nc1cc(Nc2nccc(-c3cn(C)c4ccccc34)n2)c(OC)cc1N(C)CCN(C)C + CNC(=O)c1ccc(Nc2nc(OC3CCCC3)c3c(-c4ccc5nc(C)oc5c4)c[nH]c3n2)c(OC)c1 showed for 323965-272-R-J2-PDC complex spheroid viability is 10.9 nM

Noted IC50 for CC(=O)O[C@H]1C(=O)[C@@]2(C)[C@H]([C@H](OC(=O)c3ccccc3)[C@]3(O)C[C@H](OC(=O)[C@H](O)[C@@H](NC(=O)c4ccccc4)c4ccccc4)C(C)=C1C3(C)C)[C@]1(OC(C)=O)CO[C@@H]1C[C@@H]2O + CNC(=O)c1ccc(Nc2nc(OC3CCCC3)c3c(-c4ccc5nc(C)oc5c4)c[nH]c3n2)c(OC)c1 , tested on 323965-272-R-J2-PDC complex spheroid viability: > 10000 nM

Test item CCCS(=O)(=O)Nc1ccc(F)c(C(=O)c2c[nH]c3ncc(-c4ccc(Cl)cc4)cc23)c1F + CNC(=O)c1ccc(Nc2nc(OC3CCCC3)c3c(-c4ccc5nc(C)oc5c4)c[nH]c3n2)c(OC)c1 ; 323965-272-R-J2-PDC complex spheroid viability; reported IC50 was > 10000 nM

Record COc1ccc([C@@H](O)c2cc(-c3ncnc4cc(N5CCOCC5)ccc34)c(F)cc2Cl)nn1 + CNC(=O)c1ccc(Nc2nc(OC3CCCC3)c3c(-c4ccc5nc(C)oc5c4)c[nH]c3n2)c(OC)c1 / 323965-272-R-J2-PDC complex spheroid viability, IC50 recorded as 1500 nM

Entry COc1cccc2c1C(=O)c1c(O)c3c(c(O)c1C2=O)CC(O)(C(=O)CO)CC3OC1CC(N)C(O)C(C)O1 (configuration not stated) + CN1CCN(c2cc(C(=O)Nc3cc4cc(-c5cnn(C)c5)ccc4cn3)ccn2)CC1 : IC50 on 323965-272-R-J2-PDC complex spheroid viability = < 31.6 nM

----------
Test system: 323965-272-R-J2-PDC complex spheroid viability
assay_protocol: Anticancer human tumor 323965-272-R-J2-PDC cell line growth inhibition [CLK];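 also: spheroids exposed to agents for seven days before readout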
test_parameters: second compound 10 µM; first compound 0.00316 µM; stronger effect = lower value
Each record is given MET if its reported viability, T/C is strictly below 30%. Records at or above 30% are given NOT MET.

Qu. Threshold test, viability, T/C < 30%: COc1c(OCCCN2CCOCC2)ccc2c3n(c(=NC(=O)c4cnc(N)nc4)nc12)CCN3 + CN1CCN(c2cc(C(=O)Nc3cc4cc(-c5cnn(C)c5)ccc4cn3)ccn2)CC1
Ans. MET

Qu. Given CCN1CCN(Cc2ccc(Nc3ncc(F)c(-c4cc(F)c5nc(C)n(C(C)C)c5c4)n3)nc2)CC1 + CNC(=O)c1ccc(Nc2nc(OC3CCCC3)c3c(-c4ccc5nc(C)oc5c4)c[nH]c3n2)c(OC)c1 , is recorded viability, T/C strictly lower than 30%?
Ans. NOT MET

Qu. Dear colleague, could you confirm whether viability, T/C of Cn1ncnc1[C@H]1c2n[nH]c(=O)c3cc(F)cc(c23)N[C@@H]1c1ccc(F)cc1 + CN1CCN(c2cc(C(=O)Nc3cc4cc(-c5cnn(C)c5)ccc4cn3)ccn2)CC1 falls below 30%? Thanks.
Ans. MET

Qu. Does the reported viability, T/C of the following compound sit strictly below 30%? CCN1CCN(Cc2ccc(Nc3ncc(F)c(-c4cc(F)c5nc(C)n(C(C)C)c5c4)n3)nc2)CC1 + CN1CCN(c2cc(C(=O)Nc3cc4cc(-c5cnn(C)c5)ccc4cn3)ccn2)CC1
Ans. MET
